- assay_notes: Growth inhibition of human NCI-H226 cells after 48 hrs by SRB assay
- Format: functional
- cond: NCI-H226, 48 h
readout_kind: TGI (µM)

{"structure": "OCCCc1n(Cc2ccc3ccccc3c2)c2ccccc2[n+]1Cc1ccc2ccccc2c1.[Br-]", "assay_value": 10.5}
{"structure": "Cc1cc2c(cc1C)[n+](Cc1ccc3ccccc3c1)cn2Cc1ccc2ccccc2c1.[Br-]", "assay_value": 3.42}
{"structure": "[Br-].c1ccc2cc(Cn3c[n+](Cc4ccc5ccccc5c4)c4ccccc43)ccc2c1", "assay_value": 3.25}
{"structure": "CCCc1n(Cc2ccc3ccccc3c2)c2ccccc2[n+]1Cc1ccc2ccccc2c1.[Br-]", "assay_value": 1.8}
{"structure": "[Cl-].c1ccc2nc(Cn3c[n+](Cc4ccc5ccccc5n4)c4ccccc43)ccc2c1", "assay_value": 20.4}
{"structure": "Cc1cc2c(cc1C)[n+](Cc1ccc3ccccc3n1)cn2Cc1ccc2ccccc2n1.[Cl-]", "assay_value": 4.01}
{"structure": "Cc1n(Cc2ccc3ccccc3c2)c2ccccc2[n+]1Cc1ccc2ccccc2c1.[Br-]", "assay_value": 3.2}
{"structure": "COCCOCCOCc1n(Cc2ccc3ccccc3n2)c2ccccc2[n+]1Cc1ccc2ccccc2c1.[Br-]", "assay_value": 4.83}
